- Tested On: T1, IFN-αF (human, UniProt P01568 24-189)
- T1 construct: also called IFN-α21; alpha F
- T1 chain: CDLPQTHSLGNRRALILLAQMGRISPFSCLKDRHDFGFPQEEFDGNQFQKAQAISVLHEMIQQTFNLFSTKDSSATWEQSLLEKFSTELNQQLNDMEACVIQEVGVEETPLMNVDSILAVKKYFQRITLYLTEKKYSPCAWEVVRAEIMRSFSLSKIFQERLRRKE
- Experiment: ProteOn, one antigen concentration
Parameter Measured: Kd (nM)
Supply the numeric figure in nM, leaving out any unit text.

IFWM3357 (antibody, V domains shown, VH IFWH624, VL IFWL1038; converted mAb; also called IFWB3092) VH: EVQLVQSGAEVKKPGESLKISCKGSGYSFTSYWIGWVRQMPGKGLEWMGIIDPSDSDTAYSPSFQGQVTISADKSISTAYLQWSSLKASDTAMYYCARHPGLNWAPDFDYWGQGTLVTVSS VL: DIQMTQSPSSLSASVGDRVTITCRASQSISEYLNWYQQKPGKAPKLLIYFASSLQSGVPSRFSGSGSGTDFTLTISSLQPEDFATYYCQQSHSLPITFGQGTKVEIK	0.039
IFWM3352 (antibody, V domains shown, VH IFWH624, VL IFWL1013; converted mAb; also called IFWB3087) VH: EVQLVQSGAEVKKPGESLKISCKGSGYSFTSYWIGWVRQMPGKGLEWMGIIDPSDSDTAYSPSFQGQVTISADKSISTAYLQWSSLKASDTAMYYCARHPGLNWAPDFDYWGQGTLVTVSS VL: DIQMTQSPSSLSASVGDRVTITCRASQSINNFLNWYQQKPGKAPKLLIYFASSLQSGVPSRFSGSGSGTDFTLTISSLQPEDFATYYCQQSFNLPITFGQGTKVEIK	0.152
IFWM3361 (antibody, V domains shown, VH IFWH624, VL IFWL1051; converted mAb; also called IFWB3096) VH: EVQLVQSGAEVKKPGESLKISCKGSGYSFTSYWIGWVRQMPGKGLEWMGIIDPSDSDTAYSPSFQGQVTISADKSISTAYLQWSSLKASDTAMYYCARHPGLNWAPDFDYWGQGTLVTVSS VL: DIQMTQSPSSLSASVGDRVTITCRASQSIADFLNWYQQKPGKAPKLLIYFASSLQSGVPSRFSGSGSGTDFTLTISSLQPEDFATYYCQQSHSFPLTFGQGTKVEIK	0.135
IFWM3355 (antibody, V domains shown, VH IFWH624, VL IFWL1022; converted mAb; also called IFWB3090) VH: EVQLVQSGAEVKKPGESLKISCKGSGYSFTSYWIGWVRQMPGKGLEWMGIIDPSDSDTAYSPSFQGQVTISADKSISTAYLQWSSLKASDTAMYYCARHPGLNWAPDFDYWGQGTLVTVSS VL: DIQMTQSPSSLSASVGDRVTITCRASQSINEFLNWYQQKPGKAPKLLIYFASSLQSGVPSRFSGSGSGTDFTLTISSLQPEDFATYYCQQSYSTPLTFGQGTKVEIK	0.052
IFWM3303 (antibody, V domains shown, VH IFWH591, VL IFWL992; converted mAb; also called IFWB3038) VH: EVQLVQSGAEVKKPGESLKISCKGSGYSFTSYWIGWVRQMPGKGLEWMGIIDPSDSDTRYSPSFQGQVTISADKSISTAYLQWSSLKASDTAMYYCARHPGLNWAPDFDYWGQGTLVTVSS VL: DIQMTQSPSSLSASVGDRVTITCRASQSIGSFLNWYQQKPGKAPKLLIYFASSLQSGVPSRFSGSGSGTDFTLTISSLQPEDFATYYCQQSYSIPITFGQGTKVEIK	0.134

q: Field request: Kd | item: IFWM3337 (antibody, V domains shown, VH IFWH591, VL IFWL1087; converted mAb; also called IFWB3072) VH: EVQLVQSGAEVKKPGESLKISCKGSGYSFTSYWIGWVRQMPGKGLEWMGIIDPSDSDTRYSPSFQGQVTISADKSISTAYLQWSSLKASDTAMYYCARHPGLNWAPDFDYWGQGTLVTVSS VL: DIQMTQSPSSLSASVGDRVTITCRASQSISNSNLNWYQQKPGKAPKLLIHWASSLQSGVPSRFSGSGSGTDFTLTISSLQPEDFATYYCQQWYDHPLTFGQGTKVEIK
a: 0.016

q: Field request: Kd | item: IFWM3312 (antibody, V domains shown, VH IFWH591, VL IFWL1010; converted mAb; also called IFWB3047) VH: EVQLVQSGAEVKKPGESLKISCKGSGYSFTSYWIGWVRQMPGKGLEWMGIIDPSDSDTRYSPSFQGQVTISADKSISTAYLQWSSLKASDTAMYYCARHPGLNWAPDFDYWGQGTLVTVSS VL: DIQMTQSPSSLSASVGDRVTITCRASQSIDGALNWYQQKPGKAPKLLIYFASSLQSGVPSRFSGSGSGTDFTLTISSLQPEDFATYYCQQSFDFPLTFGQGTKVEIK
a: 0.02

q: Field request: Kd | item: IFWM3321 (antibody, V domains shown, VH IFWH591, VL IFWL1048; converted mAb; also called IFWB3056) VH: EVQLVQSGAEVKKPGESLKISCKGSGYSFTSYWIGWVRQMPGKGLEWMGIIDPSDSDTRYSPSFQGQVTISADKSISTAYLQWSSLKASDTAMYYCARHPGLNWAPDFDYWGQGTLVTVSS VL: DIQMTQSPSSLSASVGDRVTITCRASQSIDGALNWYQQKPGKAPKLLIYFASSLQSGVPSRFSGSGSGTDFTLTISSLQPEDFATYYCQQAYDFPLTFGQGTKVEIK
a: 0.024

q: Field request: Kd | item: IFWM3335 (antibody, V domains shown, VH IFWH591, VL IFWL1084; converted mAb; also called IFWB3070) VH: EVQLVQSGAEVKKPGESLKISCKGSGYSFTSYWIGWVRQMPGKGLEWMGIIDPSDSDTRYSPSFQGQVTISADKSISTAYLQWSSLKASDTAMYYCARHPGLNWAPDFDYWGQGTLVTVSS VL: DIQMTQSPSSLSASVGDRVTITCRASQSINYLNWYQQKPGKAPKLLIYGASSLQSGVPSRFSGSGSGTDFTLTISSLQPEDFATYYCQQSHDWPITFGQGTKVEIK
a: 0.061

q: Field request: Kd | item: IFWM3339 (antibody, V domains shown, VH IFWH591, VL IFWL1093; converted mAb; also called IFWB3074) VH: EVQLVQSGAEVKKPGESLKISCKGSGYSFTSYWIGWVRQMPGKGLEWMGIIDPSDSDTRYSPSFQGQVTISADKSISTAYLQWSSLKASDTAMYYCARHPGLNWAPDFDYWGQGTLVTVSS VL: DIQMTQSPSSLSASVGDRVTITCRASQSIANNDLNWYQQKPGKAPKLLIHWASSLQSGVPSRFSGSGSGTDFTLTISSLQPEDFATYYCQQDYDWPLTFGQGTKVEIK
a: 0.065
